test: A CellTox Green Cytotoxicity Assay to monitor cytotoxicity in HepG2 cells - 32 hour (AID 1224883); conditions: CellTox Green fluorescence; series mostly up to 76.8 µM; note: % is set by controls: 0 for no effect and ±100 for the full control effect; nearly all actives have a fitted effect of over 50% in size
Inconclusive results are not listed. Active and inactive are the calls of the source. Calls come from the whole dose curve; as a rule, active = well fitted activation curve with a large enough effect in the repeat runs; inconclusive = weak or mixed curves; inactive = flat fitted curve, though single readings scatter.
OBSERVED_PROPERTY: cytotoxicity increase

Below: 6 compounds and their reported cytotoxicity increase.
{"STRUCTURE_NOTATION": "C[Si](C)(C)O[Si](O)(O)O", "OBSERVED_PROPERTY": "cytotoxicity increase", "VALUE_REPORTED": "inactive"}
{"STRUCTURE_NOTATION": "CCCCCCCCCCCCCCCCN(C)C", "OBSERVED_PROPERTY": "cytotoxicity increase", "VALUE_REPORTED": "1.06% [at 6.97 µM] (inactive)"}
{"STRUCTURE_NOTATION": "O=C(CCBr)N1CCN(C(=O)CCBr)CC1", "OBSERVED_PROPERTY": "cytotoxicity increase", "VALUE_REPORTED": "inactive"}
{"STRUCTURE_NOTATION": "Cc1ccc2cccnc2c1", "OBSERVED_PROPERTY": "cytotoxicity increase", "VALUE_REPORTED": "inactive"}
{"STRUCTURE_NOTATION": "CCOC(=O)COc1ccc2c(C)c(CCN(CC)CC)c(=O)oc2c1Cl", "OBSERVED_PROPERTY": "cytotoxicity increase", "VALUE_REPORTED": "inactive"}
{"STRUCTURE_NOTATION": "C[C@H]1COc2c(C3(N)CC3)c(F)cc3c(=O)c(C(=O)O)cn1c23", "OBSERVED_PROPERTY": "cytotoxicity increase", "VALUE_REPORTED": "inactive"}

Data request: Bench note: what cytotoxicity increase did O=C(O)CCCCCCCCCC(=O)O show?
Data returned: inactive

----------
Assay: qHTS assay to identify small molecule antagonists of the farnesoid-X-receptor (FXR) signaling pathway - cell viability counter screen (AID 743221); note: % is set by controls: 0 for no effect and ±100 for the full control effect; nearly all actives have a fitted effect of over 50% in size
Conditions: FXR-bla HEK293T viability, CellTiter-Glo luminescence, 16 h; series mostly up to 62.6 µM
Description: National Center for Advancing Translational Sciences [NCATS] NIH Chemical Genomics Center [NCGC] U.S. Environmental Protection Agency [EPA] National Institutes of Environmental Health Sciences [NIEHS] National Toxicology Program [NTP] U.S. Food and Drug Administration [FDA] The farnesoid-X-receptor (FXR), a nuclear hormone receptor, is highly expressed in liver, intestine, kidney and adrenal cortex. Natural ligands of FXR are the bile acids (Cholic acid, Chenodeoxy cholic acid etc). […]
Results filed as inconclusive are left out. Activity calls are given as the source filed them. The call rests on the fitted dose curve; in most records, active means well fitted cell-killing curve with a large enough effect in the repeat runs (not every such curve was filed as active); inconclusive means weak or mixed curves, or effect the other way; inactive means no such curve, though single readings can be large or run the other way.
OBSERVED_PROPERTY: activity change, negative = cytotoxicity

Below: 6 compounds and their reported activity change, negative = cytotoxicity.
{"COMPOUND": "O=C1CCCc2c(O)cccc21", "activity change, negative = cytotoxicity": "inactive"}
{"COMPOUND": "COC(=O)N/N=C/c1c[n+]([O-])c2ccccc2[n+]1[O-]", "activity change, negative = cytotoxicity": "inactive"}
{"COMPOUND": "CC(=O)OC/C=C(/C)CCC=C(C)C", "activity change, negative = cytotoxicity": "inactive"}
{"COMPOUND": "CCCCN(CCCC)CCCCCCN(CCCC)CCCC", "activity change, negative = cytotoxicity": "inactive"}
{"COMPOUND": "CCCC[O][Al]([O]CCCC)[O]CCCC", "activity change, negative = cytotoxicity": "inactive"}
{"COMPOUND": "CC(=O)OC1CCC(C(C)(C)C)CC1 (centres undefined)", "activity change, negative = cytotoxicity": "inactive"}

Data request: Bench note: what activity change, negative = cytotoxicity did CCCC(=O)OC show?
Data returned: inactive

Data request: Bench note: what activity change, negative = cytotoxicity did CC(=O)c1c(C)cc(C(C)(C)C)cc1C show?
Data returned: inactive

Data request: Bench note: what activity change, negative = cytotoxicity did COc1ccc(Cl)cc1C show?
Data returned: inactive

Data request: Bench note: what activity change, negative = cytotoxicity did O=Cc1ccccc1S(=O)(=O)O show?
Data returned: inactive

Data request: Bench note: what activity change, negative = cytotoxicity did O=CN1CCCCC1 show?
Data returned: inactive

Data request: Bench note: what activity change, negative = cytotoxicity did C=CCON/C(CCC)=C1\C(=O)CC(C)(C)C(C(=O)OC)=C1O show?
Data returned: inactive

Data request: Bench note: what activity change, negative = cytotoxicity did c1cc2ccc3ccc4ccc5cccc6c(c1)c2c3c4c56 show?
Data returned: 2.77% [at 2.69 µM] (inactive)

Data request: Bench note: what activity change, negative = cytotoxicity did CCOC(=O)CC(C(C)=O)C(C)=O show?
Data returned: inactive

----------
target: Aromatase (Homo sapiens) (UniProt P11511); assay: qHTS assay to identify aromatase inhibitors (AID 743083); details: MCF-7 aro ERE, testosterone-driven ERE luciferase, 24 h; series mostly up to 70.3 µM; note: % is set by controls: 0 for no effect and ±100 for the full control effect; nearly all actives have a fitted effect of over 55% in size
Sequence (P11511 whole entry, looked up): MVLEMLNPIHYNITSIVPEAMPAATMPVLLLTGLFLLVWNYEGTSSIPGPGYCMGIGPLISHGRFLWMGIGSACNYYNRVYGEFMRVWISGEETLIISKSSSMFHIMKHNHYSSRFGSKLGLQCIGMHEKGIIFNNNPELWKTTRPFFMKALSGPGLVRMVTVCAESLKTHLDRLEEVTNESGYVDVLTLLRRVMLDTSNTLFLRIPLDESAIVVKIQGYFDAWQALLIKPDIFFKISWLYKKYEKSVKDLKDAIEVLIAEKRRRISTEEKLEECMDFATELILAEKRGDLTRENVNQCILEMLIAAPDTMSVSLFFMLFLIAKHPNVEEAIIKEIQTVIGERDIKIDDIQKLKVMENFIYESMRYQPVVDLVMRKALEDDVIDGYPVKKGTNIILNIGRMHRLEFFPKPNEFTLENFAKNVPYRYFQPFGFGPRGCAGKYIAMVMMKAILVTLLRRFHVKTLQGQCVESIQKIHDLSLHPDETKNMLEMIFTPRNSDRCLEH
Results filed as inconclusive are left out. The source made the active and inactive calls. Calls come from the whole dose curve; as a rule, active = well fitted inhibition curve with a large enough effect in the repeat runs; inconclusive = weak or mixed curves; inactive = no such curve, though single readings can be large or run the other way. Non-standard residues stand in square brackets, D forms with d. Residues, ends and D or L forms follow the SMILES beside them. *: point of attachment. Sta = CC(C)C[C@H](N)[C@@H](O)CC(=O)O; Isovaleryl = CC(C)CC(=O)*
OBSERVED_PROPERTY: activity, negative = inhibition

{"MOLECULE": "Cc1ccc2ccccc2n1", "activity, negative = inhibition": "inactive"}
{"MOLECULE": "NC(=O)CC[C@@H](N)C(=O)O", "activity, negative = inhibition": "inactive"}
{"MOLECULE": "CCCCCCCCS(=O)(=O)O", "activity, negative = inhibition": "inactive"}
{"MOLECULE": "CC[N+](C)(CC)CC", "activity, negative = inhibition": "inactive"}
{"MOLECULE": "COC(=O)c1ccc(C(=O)O)cc1", "activity, negative = inhibition": "inactive"}
{"MOLECULE": "CC(C)CC(=O)N[C@H](C(=O)N[C@H](C(=O)N[C@@H](CC(C)C)[C@@H](O)CC(=O)N[C@@H](C)C(=O)N[C@@H](CC(C)C)[C@@H](O)CC(=O)O)C(C)C)C(C)C (Isovaleryl-VV[Sta]A[Sta]-OH)", "activity, negative = inhibition": "inactive"}
{"MOLECULE": "C[C@@H](CN1CC(=O)NC(=O)C1)N1CC(=O)NC(=O)C1", "activity, negative = inhibition": "inactive"}
{"MOLECULE": "CC(C)(C)C(=O)NCCCC(=O)O", "activity, negative = inhibition": "inactive"}

Data request: Bench note: what activity, negative = inhibition did CCCCN1C(=O)c2ccccc2C1=O show?
Data returned: inactive

Data request: Bench note: what activity, negative = inhibition did CC(=O)OC/C=C(/C)CCC=C(C)C show?
Data returned: inactive

Data request: Bench note: what activity, negative = inhibition did CC(C)(C)OC=O show?
Data returned: inactive

Data request: Bench note: what activity, negative = inhibition did CCOC(=O)[C@H](CCc1ccccc1)N[C@H]1CS[C@H](c2cccs2)CN(CC(=O)O)C1=O show?
Data returned: inactive

Data request: Bench note: what activity, negative = inhibition did CCCCc1ccc(Cl)cc1 show?
Data returned: inactive

----------
experiment: qHTS assay to identify small molecule antagonists of the retinoid acid receptor (RAR) signaling pathway - cell viability counter screen (AID 1159551); settings: C3RL4 cells viability, ATP luminescence (CellTiter-Glo), 6 h; series mostly up to 92.4 µM; note: % is set by controls: 0 for no effect and ±100 for the full control effect; nearly all actives have a fitted effect of over 35% in size
Inconclusive results are not listed. The source made the active and inactive calls. The call rests on the fitted dose curve; in most records, active means well fitted cell-killing curve with a large enough effect in the repeat runs; inconclusive means weak or mixed curves, or effect the other way; inactive means flat fitted curve, though single readings scatter.
OBSERVED_PROPERTY: activity change, negative = cytotoxicity

Below: 4 compounds and their reported activity change, negative = cytotoxicity.
{"COMPOUND": "CC(C)(C)C(=O)NCCCC(=O)O", "activity change, negative = cytotoxicity": "inactive"}
{"COMPOUND": "C=C(C)C(=O)OCCOC1CC2CC1C1C=CCC21 (stereo not drawn)", "activity change, negative = cytotoxicity": "inactive"}
{"COMPOUND": "Cc1cc(C)c(C)c(C)c1", "activity change, negative = cytotoxicity": "inactive"}
{"COMPOUND": "C=COCCCCO", "activity change, negative = cytotoxicity": "inactive"}

Data request: Bench note: what activity change, negative = cytotoxicity did CCCCCCCCCCCCCC(=O)OCC show?
Data returned: inactive

Data request: Bench note: what activity change, negative = cytotoxicity did COC(=O)C(c1ccccc1Cl)N1CCc2sccc2C1 (stereo not drawn) show?
Data returned: inactive

Data request: Bench note: what activity change, negative = cytotoxicity did CC(C)(C)OC=O show?
Data returned: inactive

Data request: Bench note: what activity change, negative = cytotoxicity did C=CCCCCCCCCOC(C)=O show?
Data returned: inactive

----------
molecular target: Cytochrome P450 2D6 (Homo sapiens); experiment: Cytochrome P450 Family 2 Subfamily D Member 6 (CYP2D6) small molecule antagonists: luciferase reporter qHTS assay (AID 1671196); settings: P450-Glo CYP2D6 enzyme assay, luciferin luminescence, 1 h; series mostly up to 115 µM; note: nearly all actives have a fitted effect of over 50% in size
Inconclusive results are not listed. Activity calls are given as the source filed them. Calls come from the whole dose curve; as a rule, active = well fitted inhibition curve with a large enough effect in the repeat runs; inconclusive = weak or mixed curves; inactive = no such curve, though single readings can be large or run the other way.
Log the outcome using a class from active, inactive

Reference set (5 entries):
{"STRUCTURE_NOTATION": "COC(=O)/C=C(\\C)CCC=C(C)C", "ANSWER_LABEL": "inactive"}
{"STRUCTURE_NOTATION": "CCCCCC(=O)CC", "ANSWER_LABEL": "inactive"}
{"STRUCTURE_NOTATION": "O=C(O)Cc1c(Cl)ccc(Cl)c1Cl", "ANSWER_LABEL": "inactive"}
{"STRUCTURE_NOTATION": "Cc1cc(N)no1", "ANSWER_LABEL": "active"}
{"STRUCTURE_NOTATION": "COC(=O)c1ccccc1Cl", "ANSWER_LABEL": "inactive"}

Data request: Recorded call for CCCCS ?
Data returned: inactive

Data request: Recorded call for O=CN1CCCCC1 ?
Data returned: inactive

Data request: Recorded call for Cc1cc(=O)oc2cc(O[C@@H]3SC[C@@H](O)[C@H](O)[C@H]3O)ccc12 ?
Data returned: inactive
